target: Maternal embryonic leucine zipper kinase (Homo sapiens); details: at 1 µM;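 note: each value is the mean inhibition of MELK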
READOUT_TYPE: inhibition (%)
Enter your answer as a number in %; do not include the unit.

Solved entries (count: 4):
Fc1cccc(COc2ccc(Nc3ncncc3C#Cc3ccccc3)cc2Cl)c1 : 4.69
CC1=C(C(=O)Nc2ccc3[nH]ncc3c2)C(c2ccc(F)cc2)N=C(c2ccc(C(F)(F)F)nc2)N1 (stereo unspecified) : 5.11
Cc1ccc(-c2cc3c(NC(=O)C4CC4)ncnc3o2)cc1 : 4.56
Cc1cc(O)cc(C)c1/C=C/c1cncc(C(N)=O)c1 : 3.76

IN: State its inhibition: `COc1cccc(Nc2nccc(-c3cnn4ncccc34)n2)c1`
OUT: 52.3

IN: State its inhibition: `COc1cc2c(cc1Nc1nc(Nc3cccc(F)c3C(N)=O)c3cc[nH]c3n1)N(C(=O)CN1CCN(C(C)C)CC1)CC2`
OUT: 18.4
